Test system: BHK = Baby hamster kidney cells
Numbered stars: 1 amine (or outer) side, 2 acyl side, 3 side chain; on linkers, the order of the positions; unused ones are H or OH. Bridge positions count the residues as written; N and C are the ends. Square brackets hold non-standard residues; d marks the D form. Peptide text beside a SMILES is read from it. * marks the point of attachment. X1 = CC[C@H](C)[C@@H](N[*:1])[C@@H](O)CC(=O)O[C@H](C(=O)[C@H](C)C(=O)[*:2])C(C)C; NMeY = CN[C@@H](Cc1ccc(O)cc1)C(=O)O; dNMeL = CN[C@H](CC(C)C)C(=O)O; Propionyl = CCC(=O)*
assay-endpoint: BHK

# compound CCC(=O)N1CCC[C@H]1C(=O)N(C)[C@H](CC(C)C)C(=O)N[C@@H]1C(=O)N[C@H]([C@@H](C)CC)[C@@H](O)CC(=O)O[C@@H](C(C)C)C(=O)[C@H](C)C(=O)N[C@@H](CC(C)C)C(=O)N2CCC[C@H]2C(=O)N(C)[C@@H](Cc2ccc(OC)cc2)C(=O)O[C@@H]1C [[Propionyl^9] Didemnin B (104), [Propionyl^9]didemnin B] (Propionyl-P[dNMeL]T[X1]LP[NMeY](Me); ester 3-C) ; its BHK = 0, PT

====

System: L1210
Details: dose 5 ng/mL
Numbered stars: 1 amine (or outer) side, 2 acyl side, 3 side chain; on linkers, the order of the positions; unused ones are H or OH. Bridge positions count the residues as written; N and C are the ends. Square brackets hold non-standard residues; d marks the D form. Peptide text beside a SMILES is read from it. * marks the point of attachment. X1 = CC[C@H](C)[C@@H](N[*:1])[C@@H](O)CC(=O)O[C@H](C(=O)[C@H](C)C(=O)[*:2])C(C)C; X3 = CC[C@H](C)[C@H](N[*:1])[C@@H](O)CC(=O)O[C@H](C(=O)[C@H](C)C(=O)[*:2])C(C)C; NMeY = CN[C@@H](Cc1ccc(O)cc1)C(=O)O; aThr = C[C@H](O)[C@H](N)C(=O)O; dNMeL = CN[C@H](CC(C)C)C(=O)O; Octanoyl = CCCCCCCC(=O)*; Hexanoyl = CCCCCC(=O)*; Pentanoyl = CCCCC(=O)*; Propionyl = CCC(=O)*
Listed here: items and their measured Cytotoxicity percent L1210 inhibition.
Please give a number only; it is taken to be in %.

Known Cytotoxicity percent L1210 inhibition results, listed for orientation:
INSERT INTO measurements (molecule, assay_endpoint, unit_text, val) VALUES
  ('CC[C@H](C)[C@H]1NC(=O)[C@@H](NC(=O)[C@@H](CC(C)C)N(C)C(=O)[C@@H]2CCCN2C(=O)C(C)O)[C@@H](C)OC(=O)[C@H](Cc2ccc(OC)cc2)N(C)C(=O)[C@@H]2CCCN2C(=O)[C@H](CC(C)C)NC(=O)[C@@H](C)C(=O)[C@H](C(C)C)OC(=O)C[C@@H]1O (stereo partly shown) [Didemnin B (17), Didemnin B, reference compound]', 'Cytotoxicity percent L1210 inhibition', '%', 93),
  ('CCCCC(=O)N(C)[C@H](CC(C)C)C(=O)N[C@@H]1C(=O)N[C@H]([C@@H](C)CC)[C@@H](O)CC(=O)O[C@@H](C(C)C)C(=O)[C@H](C)C(=O)N[C@@H](CC(C)C)C(=O)N2CCC[C@H]2C(=O)N(C)[C@@H](Cc2ccc(OC)cc2)C(=O)O[C@@H]1C [N^a -Pentanoyl-, N-pentanoyl didemnin A] (Pentanoyl-[dNMeL]T[X1]LP[NMeY](Me); ester 2-C)', 'Cytotoxicity percent L1210 inhibition', '%', 56),
  ('CCCCCCCC(=O)N(C)[C@H](CC(C)C)C(=O)N[C@@H]1C(=O)N[C@H]([C@@H](C)CC)[C@@H](O)CC(=O)O[C@@H](C(C)C)C(=O)[C@H](C)C(=O)N[C@@H](CC(C)C)C(=O)N2CCC[C@H]2C(=O)N(C)[C@@H](Cc2ccc(OC)cc2)C(=O)O[C@@H]1C [N^a -Octanoyl-, N-octanoyl didemnin A] (Octanoyl-[dNMeL]T[X1]LP[NMeY](Me); ester 2-C)', 'Cytotoxicity percent L1210 inhibition', '%', 89),
  ('CCCCCC(=O)N(C)[C@H](CC(C)C)C(=O)N[C@@H]1C(=O)N[C@H]([C@@H](C)CC)[C@@H](O)CC(=O)O[C@@H](C(C)C)C(=O)[C@H](C)C(=O)N[C@@H](CC(C)C)C(=O)N2CCC[C@H]2C(=O)N(C)[C@@H](Cc2ccc(OC)cc2)C(=O)O[C@@H]1C [N^a -Hexanoyl-, N-hexanoyl didemnin A] (Hexanoyl-[dNMeL]T[X1]LP[NMeY](Me); ester 2-C)', 'Cytotoxicity percent L1210 inhibition', '%', 73),
  ('CCC(=O)N(C)[C@H](CC(C)C)C(=O)N[C@@H]1C(=O)N[C@H]([C@@H](C)CC)[C@@H](O)CC(=O)O[C@@H](C(C)C)C(=O)[C@H](C)C(=O)N[C@@H](CC(C)C)C(=O)N2CCC[C@H]2C(=O)N(C)[C@@H](Cc2ccc(OC)cc2)C(=O)O[C@@H]1C [(N-Propionyl)Didemnin A (98), N-propionyl-didemnin A] (Propionyl-[dNMeL]T[X1]LP[NMeY](Me); ester 2-C)', 'Cytotoxicity percent L1210 inhibition', '%', 93),
  ('CC[C@H](C)[C@H]1NC(=O)[C@@H](NC(=O)[C@@H](CC(C)C)NC)[C@@H](C)OC(=O)[C@H](Cc2ccc(OC)cc2)N(C)C(=O)[C@@H]2CCCN2C(=O)[C@H](CC(C)C)NC(=O)[C@@H](C)C(=O)[C@H](C(C)C)OC(=O)C[C@@H]1O [Didemnin A (1), Didemnin A, reference compound] (H-[dNMeL]T[X1]LP[NMeY](Me); ester 2-C)', 'Cytotoxicity percent L1210 inhibition', '%', 0);

// field: Cytotoxicity percent L1210 inhibition; key: CC[C@H](C)[C@@H]1NC(=O)[C@@H](NC(=O)[C@@H](CC(C)C)N(C)C(C)=O)[C@H](C)OC(=O)[C@H](Cc2ccc(OC)cc2)N(C)C(=O)[C@@H]2CCCN2C(=O)[C@H](CC(C)C)NC(=O)[C@@H](C)C(=O)[C@H](C(C)C)OC(=O)C[C@@H]1O [N-Acetyldidemnin A (54), N-Acetyl didemnin A] (Ac-[dNMeL][aThr][X3]LP[NMeY](Me); ester 2-C) ; value = 89

====

Tested on: L1210 cells
Numbered stars: 1 amine (or outer) side, 2 acyl side, 3 side chain; on linkers, the order of the positions; unused ones are H or OH. Bridge positions count the residues as written; N and C are the ends. Square brackets hold non-standard residues; d marks the D form. Peptide text beside a SMILES is read from it. * marks the point of attachment. X1 = CC[C@H](C)[C@@H](N[*:1])[C@@H](O)CC(=O)O[C@H](C(=O)[C@H](C)C(=O)[*:2])C(C)C; NMeY = CN[C@@H](Cc1ccc(O)cc1)C(=O)O; dNMeL = CN[C@H](CC(C)C)C(=O)O; X5 = O=C(Cc1ccccc1)C(=O)*; Aze = O=C(O)[C@@H]1CCN1; Pyruvoyl = CC(=O)C(=O)*; Sar = CNCC(=O)O
The entries below come with measured log10 IC50 values attached.
All values: base-10 log of IC50 in ng/mL.

These recorded examples may help you get a feel for the data.
INSERT INTO assay_data (molecule, assay_endpoint, val) VALUES
  ('CC[C@H](C)[C@H]1NC(=O)[C@@H](NC(=O)[C@@H](CC(C)C)N(C)C(=O)CN(C)C(=O)C(C)=O)[C@@H](C)OC(=O)[C@H](Cc2ccc(OC)cc2)N(C)C(=O)[C@@H]2CCCN2C(=O)[C@H](CC(C)C)NC(=O)[C@@H](C)C(=O)[C@H](C(C)C)OC(=O)C[C@@H]1O [Pyruv-Sar-DA, Pyruv-Sar Didemnin A] (Pyruvoyl-[Sar][dNMeL]T[X1]LP[NMeY](Me); ester 3-C)', 'log10 IC50', 0.00),
  ('CC[C@H](C)[C@H]1NC(=O)[C@@H](NC(=O)[C@@H](CC(C)C)N(C)C(=O)[C@H]2CCCN2C(=O)C(C)=O)[C@@H](C)OC(=O)[C@H](Cc2ccc(OC)cc2)N(C)C(=O)[C@@H]2CCCN2C(=O)[C@H](CC(C)C)NC(=O)[C@@H](C)C(=O)[C@H](C(C)C)OC(=O)C[C@@H]1O [Pyruv-D-Pro-DA, Pyruv-D-Pro Didemnin A] (Pyruvoyl-[dP][dNMeL]T[X1]LP[NMeY](Me); ester 3-C)', 'log10 IC50', 0.78),
  ('CC[C@H](C)[C@H]1NC(=O)[C@@H](NC(=O)[C@@H](CC(C)C)N(C)C(=O)[C@@H]2CCCN2C(=O)C(C)O)[C@@H](C)OC(=O)[C@H](Cc2ccc(OC)cc2)N(C)C(=O)[C@@H]2CCCN2C(=O)[C@H](CC(C)C)NC(=O)[C@@H](C)C(=O)[C@H](C(C)C)OC(=O)C[C@@H]1O (stereo partly drawn) [Didemnin B (17), Didemnin B, reference compound]', 'log10 IC50', -0.30);

Lab note: measured log10 IC50 of CC[C@H](C)[C@H]1NC(=O)[C@@H](NC(=O)[C@@H](CC(C)C)N(C)C(=O)[C@@H]2CCN2C(=O)C(C)=O)[C@@H](C)OC(=O)[C@H](Cc2ccc(OC)cc2)N(C)C(=O)[C@@H]2CCCN2C(=O)[C@H](CC(C)C)NC(=O)[C@@H](C)C(=O)[C@H](C(C)C)OC(=O)C[C@@H]1O [Pyruv-Azt-DA, Pyruv-Azt Didemnin A] (Pyruvoyl-[Aze][dNMeL]T[X1]LP[NMeY](Me); ester 3-C) was -0.22

Noted for CC[C@H](C)[C@H]1NC(=O)[C@@H](NC(=O)[C@@H](CC(C)C)N(C)C(=O)[C@@H]2CCCN2C(=O)C(C)=O)[C@@H](C)OC(=O)[C@H](Cc2ccc(OC)cc2)N(C)C(=O)[C@@H]2CCCN2C(=O)[C@H](CC(C)C)NC(=O)[C@@H](C)C(=O)[C@H](C(C)C)OC(=O)C[C@@H]1O [[Pyruvyl^9]Didemnin B (106), Dehydrodidemnin B] (Pyruvoyl-P[dNMeL]T[X1]LP[NMeY](Me); ester 3-C) : its log10 IC50 reads -0.70

Lookup result for CC[C@H](C)[C@H]1NC(=O)[C@@H](NC(=O)[C@@H](CC(C)C)N(C)C(=O)[C@@H]2CCCN2C(=O)C(=O)Cc2ccccc2)[C@@H](C)OC(=O)[C@H](Cc2ccc(OC)cc2)N(C)C(=O)[C@@H]2CCCN2C(=O)[C@H](CC(C)C)NC(=O)[C@@H](C)C(=O)[C@H](C(C)C)OC(=O)C[C@@H]1O [Phepyruv-Pro-DA, PhePyruv-Pro Didemnin A] (X5-P[dNMeL]T[X1]LP[NMeY](Me); ester 3-C) ; measured log10 IC50: 0.54

Sourced from patent US5294603A
